Please find below pIC50 measurements for Serine/threonine-protein kinase Chk1 (Homo sapiens, UniProt O14757), combined from several publications.
pIC50: −log10 of the molar value.

{"columns": ["compound", "pIC50"],
 "data": [
  ["O=C(Nc1c[nH]c(=O)c(-c2cc3c(CN4CCCCC4)cccc3[nH]2)c1)c1cnn(Cc2ccccc2)c1", "> 7.00"]
]}

Query: # query: pIC50 | item CNCC1(COc2cc(F)cc(OC)c2-c2cc(Nc3cnc(C#N)cn3)n[nH]2)CC1 | system: Serine/threonine-protein kinase Chk1 (Homo sapiens, UniProt O14757)
Result: ≥ 9.00

Query: # query: pIC50 | item CN1CCN(c2ccc(CNc3c(Nc4ccc5[nH]cnc5c4)c(=O)c3=O)cc2)CC1 | system: Serine/threonine-protein kinase Chk1 (Homo sapiens, UniProt O14757)
Result: < 6.00

Query: # query: pIC50 | item O=c1c(NCCc2cccc(O)c2)c(Nc2ccc3[nH]cnc3c2)c1=O | system: Serine/threonine-protein kinase Chk1 (Homo sapiens, UniProt O14757)
Result: < 6.00

Query: # query: pIC50 | item O=c1c(NCc2cccc(O)c2)c(Nc2ccc3cc[nH]c3c2)c1=O | system: Serine/threonine-protein kinase Chk1 (Homo sapiens, UniProt O14757)
Result: < 6.00

Query: # query: pIC50 | item CNS(=O)(=O)c1ccc(CNc2c(Nc3ccc4[nH]cnc4c3)c(=O)c2=O)cc1 | system: Serine/threonine-protein kinase Chk1 (Homo sapiens, UniProt O14757)
Result: < 6.00

Query: # query: pIC50 | item CC[C@@H](Nc1c(Nc2ccc3[nH]cnc3c2)c(=O)c1=O)c1cccc(O)c1 | system: Serine/threonine-protein kinase Chk1 (Homo sapiens, UniProt O14757)
Result: > 6.00

Query: # query: pIC50 | item CC1CN(Cc2ccc3[nH]c(-c4cc(NC(=O)c5cnn(Cc6ccccc6)c5)c[nH]c4=O)cc3c2)CCN1C (stereo not shown) | system: Serine/threonine-protein kinase Chk1 (Homo sapiens, UniProt O14757)
Result: > 7.00

Query: # query: pIC50 | item O=c1c(NCc2cccc(O)c2)c(Nc2cc(Cl)c3[nH]cnc3c2)c1=O | system: Serine/threonine-protein kinase Chk1 (Homo sapiens, UniProt O14757)
Result: > 6.00

Query: # query: pIC50 | item Cc1ccc(CNc2c(Nc3ccc4[nH]cnc4c3)c(=O)c2=O)cc1O | system: Serine/threonine-protein kinase Chk1 (Homo sapiens, UniProt O14757)
Result: < 6.00

Query: # query: pIC50 | item Cc1cnc(NC(=O)Nc2cc(Cl)ccc2OCCCCN)cn1 | system: Serine/threonine-protein kinase Chk1 (Homo sapiens, UniProt O14757)
Result: 8.52

Query: # query: pIC50 | item COc1cccc(OCC2CNC2)c1-c1cc(Nc2cnc(C#N)cn2)n[nH]1 | system: Serine/threonine-protein kinase Chk1 (Homo sapiens, UniProt O14757)
Result: 9.42

Query: # query: pIC50 | item CCN(CC)CCn1cnc2ccc(Nc3c(NCc4ccc(-c5nnn[nH]5)cc4)c(=O)c3=O)cc21 | system: Serine/threonine-protein kinase Chk1 (Homo sapiens, UniProt O14757)
Result: < 6.00

---

Please find below IC50 measurements for Serine/threonine-protein kinase Chk1 (Homo sapiens, UniProt O14757), combined from several publications.

Query: # query: IC50 | item CC(C)(COc1ccc2[nH]c(-c3cc(NC(=O)c4cnn(Cc5ccccc5)c4)c[nH]c3=O)cc2c1)CN1CCCC1 | system: Serine/threonine-protein kinase Chk1 (Homo sapiens, UniProt O14757)
Result: < 0.1 µM

Query: # query: IC50 | item C[C@@H](Nc1c(Nc2cccc(-c3ccccn3)c2)c(=O)c1=O)c1cccc(O)c1 | system: Serine/threonine-protein kinase Chk1 (Homo sapiens, UniProt O14757)
Result: > 1 µM

Query: # query: IC50 | item NC(=O)c1cccc(-c2cn3c(C(N)=O)cnc(N[C@H]4CCCNC4)c3n2)c1 | system: Serine/threonine-protein kinase Chk1 (Homo sapiens, UniProt O14757)
Result: 0.055 µM

Query: # query: IC50 | item CCN(CC)CC(C)(C)COc1ccc2[nH]c(-c3cc(NC(=O)c4cnn(Cc5ccccc5)c4)c[nH]c3=O)cc2c1 | system: Serine/threonine-protein kinase Chk1 (Homo sapiens, UniProt O14757)
Result: < 0.1 µM

Query: # query: IC50 | item CN1CCN(CCCOc2ccc3[nH]c(-c4cc(NC(=O)c5cnn(Cc6ccccc6)c5)c[nH]c4=O)cc3c2)CC1 | system: Serine/threonine-protein kinase Chk1 (Homo sapiens, UniProt O14757)
Result: < 0.1 µM

Query: # query: IC50 | item Cc1cc(F)c(-c2cc(Nc3cnc(C#N)cn3)n[nH]2)c(OC[C@H]2CCCNC2)c1 | system: Serine/threonine-protein kinase Chk1 (Homo sapiens, UniProt O14757)
Result: 0.00166 µM

Query: # query: IC50 | item CCN(CC)CCn1cnc2ccc(Nc3c(N[C@H](C)c4cccc(OC)c4)c(=O)c3=O)cc21 | system: Serine/threonine-protein kinase Chk1 (Homo sapiens, UniProt O14757)
Result: > 1 µM

Query: # query: IC50 | item Cc1ccc(Cn2cc(C(=O)Nc3c[nH]c(=O)c(-c4cc5cc(N6CCN(C)CC6)ccc5[nH]4)c3)cn2)cc1 | system: Serine/threonine-protein kinase Chk1 (Homo sapiens, UniProt O14757)
Result: < 0.1 µM

Query: # query: IC50 | item O=C(O)c1cccc(CNc2c(Nc3ccc4[nH]cnc4c3)c(=O)c2=O)c1 | system: Serine/threonine-protein kinase Chk1 (Homo sapiens, UniProt O14757)
Result: > 1 µM

Query: # query: IC50 | item Cc1ccc(Cn2cc(C(=O)Nc3c[nH]c(=O)c(-c4cc5cc(OCCN6CCCCC6)ccc5[nH]4)c3)cn2)cc1 | system: Serine/threonine-protein kinase Chk1 (Homo sapiens, UniProt O14757)
Result: < 0.1 µM

Query: # query: IC50 | item O=c1c(NCc2cccc(OC(F)F)c2)c(Nc2ccc3nc[nH]c3c2)c1=O | system: Serine/threonine-protein kinase Chk1 (Homo sapiens, UniProt O14757)
Result: > 1 µM
